Data credit: ChEMBL document CHEMBL4689842

Here, each record is paired with measured Population Mitochondria Different-Phenotype (%) data.
- Tested on: U2OS
- Experiment notes: Multiplex assay against U2OS
- Type: toxicity, cell-based
- Run parameters: human, 48 h, 10 µM, compound concentration 10 uM, replicate 1
Quantity kind: Population Mitochondria Different-Phenotype (%)

Test smiles	Measured result
CN1CCN(c2ccc(OC(F)(F)F)c(Nc3ncc4c(n3)-c3c(c(C(N)=O)nn3CCO)CC4)c2)CC1	60
Cc1[nH]c(/C=C2\C(=O)Nc3ccc(S(=O)(=O)N(C)c4cccc(Cl)c4)cc32)c(C)c1C(=O)N1CCN(C)CC1	91
CN1CCN(CCOc2cc(OC3CCOCC3)c3c(Nc4c(Cl)ccc5c4OCO5)ncnc3c2)CC1	88
CC(C)(O)CNc1ncc(-c2ccnc(Nc3ccnc(Cl)c3)n2)c(CC2CC2)n1	90

* * *

Here, each record is paired with measured Population Apoptotic (%) data.
- System: HEK-293T
- Experiment notes: Multiplex assay against HEK293T
- Format: toxicity, cell-based
- Run parameters: human, 24 h, 1 µM, compound concentration 1 uM, replicate 2

Compound	System under test	Population Apoptotic (%)
CN1CCN(CCOc2cc(OC3CCOCC3)c3c(Nc4c(Cl)ccc5c4OCO5)ncnc3c2)CC1	HEK-293T	28
C=CC(=O)Nc1cccc(C(=O)Nc2ccc(Nc3cc(-c4[nH]c(SC)nc4C)ccn3)cc2)c1	HEK-293T	13
C=CC(=O)Nc1ccc2ncnc(Nc3ccc(OCc4cccc(F)c4)c(Cl)c3)c2c1.Cc1ccc(S(=O)(=O)O)cc1	HEK-293T	16
Cc1cc(C)cc(-c2cnc3cc(Cl)c(-c4cccc(O)c4)cc3c2OCCCN)c1	HEK-293T	39
O=C1NCN(c2ccccc2)C12CCN(CCCOc1ccc(F)cc1)CC2 [SPIRAMIDE]	HEK-293T	6
COc1cccc([C@@H](C)NCCCc2ccccc2Cl)c1.Cl [TECALCET HYDROCHLORIDE]	HEK-293T	27
CC(C)(O)CNc1ncc(-c2ccnc(Nc3ccnc(Cl)c3)n2)c(CC2CC2)n1	HEK-293T	27
CCN(CC)CCCCNc1ncc2cc(-c3cc(OC)cc(OC)c3)c(NC(=O)NC(C)(C)C)nc2n1	HEK-293T	0
Cc1nc(-c2ccc(-c3ccc(C(=O)N4CCc5cc6c(cc54)C4(CCN(C)CC4)CO6)cc3)c(C)c2)no1	HEK-293T	33
CN(C)CC#Cc1ccc(OCCCc2sc(N3CCc4cccc(C(=O)Nc5nc6ccccc6s5)c4C3)nc2C(=O)O)c(F)c1	HEK-293T	10
CN1CCCC(n2nc(Cc3ccc(Cl)cc3)c3ccccc3c2=O)CC1.Cl (configuration not stated) [AZELASTINE HYDROCHLORIDE]	HEK-293T	50
CN(C)C(=O)/C(C#N)=C/c1ccc(-c2nc3cnc4[nH]ccc4c3n2C2CCCCC2)o1	HEK-293T	21
CC[C@H](C)C(=O)O[C@H]1C[C@@H](C)C=C2C=C[C@H](C)[C@H](CC[C@@H]3C[C@@H](O)CC(=O)O3)[C@H]21	HEK-293T	8
Cc1[nH]c(/C=C2\C(=O)Nc3ccc(S(=O)(=O)N(C)c4cccc(Cl)c4)cc32)c(C)c1C(=O)N1CCN(C)CC1	HEK-293T	24
COc1ncc(-c2ccc3nccc(-c4ccnnc4)c3c2)cc1NS(=O)(=O)c1ccc(F)cc1F	HEK-293T	29
Cn1cc(-c2[nH]c3cc(NC(=O)[C@H](N)C4CCCCC4)cc4c3c2C=NNC4=O)cn1	HEK-293T	40
NC(=O)Nc1cc(-c2cccc(F)c2)sc1C(=O)N[C@H]1CCCNC1	HEK-293T	35
Cc1nc(Nc2n[nH]c3c2CN(C(=O)N[C@H](CN(C)C)c2ccccc2)C3(C)C)c2sccc2n1	HEK-293T	4
C[C@@]1(C(=O)Nc2ccc(F)nc2)CCCN1c1nc(Nc2cc(C3CC3)n[nH]2)c2cccn2n1	HEK-293T	17
CC(C)NCC(O)COc1ccc(CCOCC2CC2)cc1.Cl (configuration not stated) [BETAXOLOL HYDROCHLORIDE]	HEK-293T	10
Cl.N#Cc1ccc2[nH]cc(CCCCN3CCN(c4ccc5oc(C(N)=O)cc5c4)CC3)c2c1 [VILAZODONE HYDROCHLORIDE]	HEK-293T	32
CN(C)C(=O)N[C@H]1CC[C@H](CCN2CCN(c3cccc(Cl)c3Cl)CC2)CC1.Cl [CARIPRAZINE HYDROCHLORIDE]	HEK-293T	12
